- Test system: COLO 205
- Protocol description: NCI tumour cell line growth inhibition, 48 h
Active and inactive are the calls of the source. Rule as the data show it: active = GI50 up to about 1.1 µM and inactive = higher.
Give your call using only these classes: active, inactive

>  <Compound>
Oc1c(/N=N/c2ccccc2)c2ccccc2c2ccc3ccccc3c12

>  <Assigned label>
inactive

$$$$

Could you please tell me the result logged for `Cc1cc2c(ccc3c(C)cc(=O)oc32)o1` in this assay?
inactive

Repeat for the following compound: `COC(OC)c1cccnc1C`
inactive

---

- System: CCRF-CEM
- Protocol description: NCI tumour cell line growth inhibition, 48 h
Active and inactive are the calls of the source. Rule as the data show it: active = GI50 up to about 1.1 µM and inactive = higher.
Each record here notes measured GI50.

>  <Compound>
CCOC(=O)c1c(SCc2cc(=O)[nH]c(=O)[nH]2)n(-c2ccccc2)c(=S)n(-c2ccccc2)c1=O

>  <GI50>
> 100 µM (inactive)

$$$$
>  <Compound>
O=[N+]([O-])c1cc2ccc(N(CCO)CCO)nc2nc1N(CCO)CCO

>  <GI50>
> 100 µM (inactive)

$$$$
>  <Compound>
O=C1C=C(Nc2nc(O)cc(C(=O)O)n2)c2ccccc2C1=O

>  <GI50>
> 100 µM (inactive)

$$$$
>  <Compound>
COC[C@@H]1Cc2cc(OC)c3c(c2[C@H](c2ccc(OC)c(OC)c2)[C@H]1COC)OCO3

>  <GI50>
> 100 µM (inactive)

$$$$
>  <Compound>
Cc1cc(C)nc(NS(=O)(=O)c2ccc(NC(=O)c3ccc4nc5ccccc5c(Nc5ccc(S(=O)(=O)N=C(N)N)cc5)c4c3)cc2)n1

>  <GI50>
68.5 µM (inactive)

$$$$
>  <Compound>
O=[N+]([O-])c1ccccc1OCCOc1ccccc1[N+](=O)[O-]

>  <GI50>
> 100 µM (inactive)

$$$$
>  <Compound>
O=C(CCC(NC(=O)OCc1ccccc1)C(=O)OCc1ccccc1)Nc1ccc(OCc2ccccc2)cc1 (centres undefined)

>  <GI50>
21.8 µM (inactive)

$$$$
>  <Compound>
C=CC1=CSNN1

>  <GI50>
> 100 µM (inactive)

$$$$

Turning now to a further record.
Give its GI50 value. Item: `CC(=O)NCCc1c(-c2[nH]c3ccccc3c2CCNC(C)=O)[nH]c2ccccc12`
> 100 µM (inactive)

---

- System: HT-29
- Protocol description: NCI tumour cell line growth inhibition, 48 h
Active and inactive are the calls of the source. Rule as the data show it: active = GI50 up to about 1.1 µM and inactive = higher.
Give your call using only these classes: yes (active), no (inactive)

Solved cases below.
>  <Compound>
C/C(=N\N=C(/S)N1CC2CCC(CC2)C1)c1ccncn1

>  <Study system>
HT-29

>  <Assigned label>
yes

$$$$
>  <Compound>
COc1cc(S(=O)(=O)Nc2nc(-c3ccc(N4C(=O)/C(=C/c5ccccc5)N=C4c4ccccc4)cc3)cs2)ccc1Cl

>  <Study system>
HT-29

>  <Assigned label>
no

$$$$
>  <Compound>
COC(=O)C1(Cc2ccc3c(c2)CCC3)Cc2ccccc2C1O (stereo not given)

>  <Study system>
HT-29

>  <Assigned label>
no

$$$$
>  <Compound>
O=C1C=C(Nc2nc(O)cc(C(=O)O)n2)c2ccccc2C1=O

>  <Study system>
HT-29

>  <Assigned label>
no

$$$$

Now look at this one.
Could you please tell me the result logged for CCOC(=O)[C@@]1(C)CC(O)C(=O)N1C (stereo not given in full) in this assay?
no

---

- Test system: SF-539
- Protocol description: NCI tumour cell line growth inhibition, 48 h
The source made the active and inactive calls. No stated cut-off is given here; in the data, active = GI50 up to about 1.1 µM and inactive = higher.
Each record here notes measured GI50.

Solved entries (count: 3):
>  <Compound>
O=C1c2ccccc2C(=O)c2c(O)ccc(O)c21 [QUINIZARIN]

>  <Study system>
SF-539

>  <Experimental endpoint>
GI50

>  <Observed result>
> 100 µM (inactive)

$$$$
>  <Compound>
CC1OC(=O)C(C(C)C)NC(=O)C(C(C)C)OC(=O)C(C(C)C)NC(=O)C(C)OC(=O)C(C(C)C)NC(=O)C(C(C)C)OC(=O)C(C(C)C)NC(=O)C(C)OC(=O)C(C(C)C)NC(=O)C(C(C)C)OC(=O)C(C(C)C)NC1=O (centres undefined)

>  <Study system>
SF-539

>  <Experimental endpoint>
GI50

>  <Observed result>
0.00333 µM (active)

$$$$
>  <Compound>
COC1=C(OC)C(=O)c2cc(C)c(=O)c(C)cc2C1=O

>  <Study system>
SF-539

>  <Experimental endpoint>
GI50

>  <Observed result>
18.2 µM (inactive)

$$$$

Turning now to a further record.
Give its GI50 value. Item: `Nc1nc(OCC2CCCCC2)c2nc[nH]c2n1`
11.5 µM (inactive)

---

- System: OVCAR-4
- Protocol description: NCI tumour cell line growth inhibition, 48 h
Active and inactive are the calls of the source. Rule as the data show it: active = GI50 up to about 1.1 µM and inactive = higher.
Experimental endpoint: GI50

Give its GI50 value. Item: CC1(O)C=CC2CCC1C2O (stereo not drawn)
> 100 µM (inactive)

Repeat for the following compound: C=C1CCC2[C@@H](CCC3[C@]2(C)CCC[C@]3(C)C(=O)OC)C1CC=O (stereo partly drawn)
17.4 µM (inactive)

Repeat for the following compound: `O=C(O)c1cc2c3ccccc3nc-2c[nH]1`
> 100 µM (inactive)

---

- Test system: HL-60
- Protocol description: NCI tumour cell line growth inhibition, 48 h
Activity calls are given as the source filed them. Rule as the data show it: active = GI50 up to about 1.1 µM and inactive = higher.
Give your call using only these classes: y (active), n (inactive)

>  <Compound>
COC(=O)C1=Cc2cn(S(=O)(=O)c3ccc(C)cc3)c3cccc(c23)C(C=C(C)C)N1C(C)=O (stereo unspecified)

>  <Assigned label>
n

$$$$
>  <Compound>
c1ccc(N2N=C3N(c4ccccc4)C2N3c2ccccc2)cc1

>  <Assigned label>
n

$$$$
>  <Compound>
COC1=C(OC)C(=O)c2cc(C)c(=O)c(C)cc2C1=O

>  <Assigned label>
n

$$$$
>  <Compound>
COC[C@@H]1Cc2cc(OC)c3c(c2[C@H](c2ccc(OC)c(OC)c2)[C@H]1COC)OCO3 [HYPOPHYLLANTHIN]

>  <Assigned label>
n

$$$$
>  <Compound>
CCOC(=O)CN1CC(C2=C(O)CN(CC(=O)OCC)C2=O)=CC1=O

>  <Assigned label>
n

$$$$

Could you please tell me the result logged for CN1C(=O)C(C(N)=O)C2CC1(C)Oc1ccccc12 (stereo unspecified) in this assay?
n

---

- System: UACC-257
- Protocol description: NCI tumour cell line growth inhibition, 48 h
Active and inactive are the calls of the source. Rule as the data show it: active = GI50 up to about 1.1 µM and inactive = higher.
Give your call using only these classes: active, inactive

Solved cases below.
>  <Molecule>
O=C1C[C@@H]2[C@@H](CCC23CCCC3)N1

>  <Study system>
UACC-257

>  <Assigned label>
inactive

$$$$
>  <Molecule>
CN(CC(=O)O)Cc1c(O)c(Cl)cc(Cl)c1Cl

>  <Study system>
UACC-257

>  <Assigned label>
inactive

$$$$
>  <Molecule>
CCC(=O)O[C@@H]1C2C(OC(C)=O)C34COC(C)([C@@H]3C3C(C[C@]3(C)OC(C)=O)[C@@H](OC(=O)c3ccccc3)C4=O)[C@H](OC(C)=O)[C@@]2(OC(C)=O)C[C@@H]1C (stereo partly specified)

>  <Study system>
UACC-257

>  <Assigned label>
inactive

$$$$

Now look at this one.
Could you please tell me the result logged for `CC(=O)NCCc1c(-c2[nH]c3ccccc3c2CCNC(C)=O)[nH]c2ccccc12` in this assay?
inactive

---

- Test system: NCI-H226
- Protocol description: NCI tumour cell line growth inhibition, 48 h
The source made the active and inactive calls. Cut-off read from the data, not from the text of the source: active = GI50 up to about 1.1 µM and inactive = higher.
Each record here notes measured GI50.

>  <Compound>
CCOC(=O)/C(=C\c1ccc(N(C)C)cc1)S(=O)(=O)C(F)(F)C(F)(F)C(F)(F)C(F)(F)F

>  <GI50>
> 100 µM (inactive)

$$$$
>  <Compound>
Cc1ccc(CSC(=N)Nc2ccccc2)cc1C

>  <GI50>
20.9 µM (inactive)

$$$$

Which GI50 is reported with NCI-H226 for this entry: C(=C\c1ccccc1)/COc1ccccc1C(N1CCOCC1)n1nc2ccccc2n1 (stereo not given) ?
7.28 µM (inactive)

Repeat for the following compound: `O[C@@H]1C[C@H]2N3CC[C@@]2(c2cc4c(cc2C3)OCO4)[C@H]2O[C@@H]12`
0.0271 µM (active)

Repeat for the following compound: `CCN(CC)c1c(C(=O)/C=C/c2ccc(F)cc2)c(-c2ccccc2)nn(C)c1=O`
14.7 µM (inactive)

Repeat for the following compound: CC[C@@]1(O)C(=O)OCc2c1cc1n(c2=O)Cc2c-1nc1ccccc1c2/C=N\NC(=O)C(N)CCSC (stereo not given in full)
< 0.016 µM (active)

Repeat for the following compound: `CCOC(=O)CC/C(C)=N\n1c(Cc2ccc(Cl)cc2)n[nH]c1=O`
> 100 µM (inactive)

Repeat for the following compound: O=C(CCC(NC(=O)OCc1ccccc1)C(=O)OCc1ccccc1)Nc1ccc(OCc2ccccc2)cc1 (stereo not given)
> 31.6 µM (inactive)

Repeat for the following compound: `N#Cc1cc2cc3c4c(c2oc1=O)CCCN4CCC3`
> 100 µM (inactive)

Repeat for the following compound: `CCn1c2ccccc2c2ccc3c(c21)C(=O)C=CC3=O`
18 µM (inactive)
